Tested on: 953936-095-R-J2-PDC spheroids with HUVEC/MSC, viability;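 also: spheroids exposed to compounds for seven days before read-out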
Assay: Anticancer human tumor 953936-095-R-J2-PDC patient-derived cervical squamous cell carcinoma cell line growth inhibition [PI3K]
Conditions: second compound 0.0316 µM; first compound 0.0316 µM; active compounds read low
test.readout: viability, T/C (%)
// note: answer is a bare numeric in %

Task: If you can, please state the reported viability, T/C value of CC1(C)CCC(CN2CCN(c3ccc(C(=O)NS(=O)(=O)c4ccc(NCC5CCOCC5)c([N+](=O)[O-])c4)c(Oc4cnc5[nH]ccc5c4)c3)CC2)=C(c2ccc(Cl)cc2)C1 + CC(Nc1ccc2c(c1)OCCn1cc(N3C(=O)OCC3C(F)F)nc1-2)C(N)=O .
Result: 77

Task: Param item = Cn1ncc(Cl)c1-c1cc(C(=O)NC(CN)Cc2cccc(F)c2)sc1Cl (stereo not given) + COc1c(OCCCN2CCOCC2)ccc2c3n(c(=NC(=O)c4cnc(N)nc4)nc12)CCN3 ; retrieve measured viability, T/C.
Result: 39.1

Task: Quick one: viability, T/C of CC(Cn1ccc(-c2ccc(C#N)c(Cl)c2)n1)NC(=O)c1cc(C(C)O)[nH]n1 (stereo not given) + CC(Nc1ncnc2nc[nH]c12)c1cc2cccc(Cl)c2c(=O)n1-c1ccccc1 ?
Result: 97.5

Task: May I ask what viability, T/C has been recorded for CC1(C)CCC(Nc2ncc(C(F)(F)F)c(-c3c[nH]c4c(P(C)(C)=O)c(C#N)ccc34)n2)CN1 (stereo not given) + CC(Nc1ccc2c(c1)OCCn1cc(N3C(=O)OCC3C(F)F)nc1-2)C(N)=O ?
Result: 45.9

Task: If you can, please state the reported viability, T/C value of Cn1nccc1Nc1nccc(-c2ccn(C(CO)c3ccc(Cl)c(F)c3)c(=O)c2)n1 (stereo not given) + Cc1nc(NC(=O)N2CCCC2C(N)=O)sc1-c1ccnc(C(C)(C)C(F)(F)F)c1 .
Result: 77.7
